Data origin: patent US20070254831A1

Collected IC50 values appear next to each entry.
measured.on: T1, soluble human FcRn (human, UniProt P55899 24-297; P61769 21-119, biotinylated (Sulfo-NHS-LC-Biotin) in the ELISA; amine-coupled to CM5 chip in SPR)
T1 construct: also called shFcRn; biotinylated shFcRn
assay: ELISA, competitor human IgG
Bridge positions count the residues as written; N and C are the ends. Square brackets hold non-standard residues; d marks the D form. Ends that are not written are not given here.

{"binder": "QRF[dC]TGHFGGLYPCNGP-NH2 (disulfide 4-14 (inferred)) [Peptide No. 29]", "quantity.unit": "nM", "bound.operator": ">", "IC50": 125000}
{"binder": "QRFXTGHFGGLYPXNGP (hC at 4 and 14; disulfide; C-terminal amide) [Peptide No. 28]", "quantity.unit": "nM", "bound.operator": "=", "IC50": 20000}
{"binder": "QRFXTGHFGPLYPXNGP (Pen at 4 and 14; D-Pro at 10; disulfide; C-terminal amide) [Peptide No. 295]", "quantity.unit": "nM", "bound.operator": "=", "IC50": 1600}
{"binder": "QRFXTGHFGGLYPXNGP (Pen at 4; hC at 14; disulfide; C-terminal amide) [Peptide No. 69]", "quantity.unit": "nM", "bound.operator": "=", "IC50": 2000}
{"binder": "QRFXTGHFGGLYPCNGP (Pen (L-penicillamine) at 4; disulfide; C-terminal amide) [Peptide No. 32]", "quantity.unit": "nM", "bound.operator": "=", "IC50": 2000}
{"binder": "QRFCTGHFGGLYPXNGP (Pen at 14; disulfide; C-terminal amide) [Peptide No. 33]", "quantity.unit": "nM", "bound.operator": "=", "IC50": 18000}
{"binder": "QRFXTGHFGGLYPXNGP (Pen at 4 and 14; disulfide; C-terminal amide) [Peptide No. 34]", "quantity.unit": "nM", "bound.operator": "=", "IC50": 2000}
{"binder": "QRFCTGHFGGLYPXNGP (hC (L-homocysteine) at 14; disulfide; C-terminal amide) [Peptide No. 27]", "quantity.unit": "nM", "bound.operator": "=", "IC50": 21000}
